assay: ATG_XTT_Cytotoxicity: Cytotoxicity Assessment in the Attagene TRANS-FACTORIAL HepG2 Assay (AID 2283584)
Inconclusive results are not listed. Calls of active or inactive are those of the source. The calls were made as follows: active = hit-call score of the fitted dose curve at least 0.9, where 1 is the maximum; inconclusive = response in the unintended direction; inactive = score below 0.9.
Outcomes: active, inactive

1) CCOP(=S)(OCC)SCS(=O)(=O)C(C)(C)C : inactive
2) O=C(Cl)OCCOCCOC(=O)Cl : inactive
3) CCCCCCCCCCCCc1cccc(S(=O)(=O)O)c1 : active
4) Oc1cccc(-c2ccccc2)c1 : inactive
5) CCCCCCCCBr : inactive
6) O=c1oc2ccccc2c(O)c1C(CC(O)c1ccc(-c2ccc(Br)cc2)cc1)c1ccccc1 (centres undefined) : inactive
7) OC(Cc1ccccc1Cl)(Cn1[nH]cnc1=S)C1(Cl)CC1 (centres undefined) : inactive
8) N#CS : inactive
9) NC(=O)c1ccc(N)nc1 : inactive
10) O=NN1CCOCC1 : inactive
11) Oc1c(Br)cc(Br)cc1Br : inactive
12) O=S1OC[C@@H]2[C@H](CO1)[C@]1(Cl)C(Cl)=C(Cl)[C@@]2(Cl)C1(Cl)Cl (some centres undefined) : inactive
13) C=CCOC(N)=O : inactive
14) CCCSP(=S)(OCC)Oc1ccc(Cl)cc1Cl (centres undefined) : inactive
15) Cc1cc(Cl)ccc1N : inactive
16) C#C[C@]1(O)CC[C@H]2[C@@H]3CCC4=CC(=O)CC[C@]4(C)[C@H]3CC[C@@]21C : inactive
17) Cc1cc(Cl)ccc1OC(C)C(=O)O (centres undefined) : inactive
18) CCOC(=O)c1ccccc1S(=O)(=O)NC(=O)Nc1nc(Cl)cc(OC)n1 : inactive
19) Nc1ccc(-c2ccccc2)cc1 : inactive
20) CN(N=O)C(N)=O : inactive
21) O=[N+]([O-])c1ccc(Cl)c([N+](=O)[O-])c1 : active
22) N#CCCC(Br)(C#N)CBr (centres undefined) : inactive
23) OC(c1ccc(Cl)cc1)(c1ccc(Cl)cc1)c1cccnc1 : active
24) CC1(C)COP(Oc2ccccc2)OC1 : inactive
25) CC(C)(C)c1cc([N+](=O)[O-])cc(C(C)(C)C)c1O : inactive
26) BrCC(Br)c1ccccc1 (centres undefined) : inactive
27) CCCCCCCCCCCCN(C)C : inactive
28) C=CC(=O)[O][Sn]([CH2]CCC)([CH2]CCC)[CH2]CCC : active
29) CCCCCCCCCCCCCCC(Br)C(=O)O (centres undefined) : inactive

* * *

read-out: Vascular endothelial growth factor receptor 2 (Homo sapiens) (UniProt P35968); assay: BSK_4H_VEGFRII: BioMAP Diversity Plus: 4H Assay for Vascular endothelial growth factor receptor 2 (VEGFR2) Biomarker Activity (AID 2283031); conditions: primary human endothelial cells (HUVEC); actives raise or lower the signal;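 as to AC50: cell-surface VEGFR2 protein level quantified by ELISA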
Active and inactive are the calls of the source. How the source made its calls: active means hit-call score of the fitted dose curve at least 0.9, where 1 is the maximum; inactive means score below 0.9.
REPORTED_METRIC: AC50

1) CC(C)N(C(=O)CCl)c1ccccc1 : inactive
2) Cc1c([N+](=O)[O-])c(C)c([N+](=O)[O-])c(C(C)(C)C)c1[N+](=O)[O-] : inactive
3) CC(C)(COCC1CO1)COCC1CO1 (stereo unspecified) : inactive
4) O=[N+]([O-])c1cccc2ccccc12 : inactive
5) C[C@]12CC[C@@H](O)C[C@@H]1CC[C@@H]1[C@@H]2CC[C@]2(C)C(=O)CC[C@@H]12 : inactive
6) OCCN(CCO)CCO : inactive
7) O=C(CCl)NCO : inactive
8) CCCCCCCCCCCCc1cccc(S(=O)(=O)O)c1 : inactive
9) CCOC(=O)C(SP(=S)(OC)OC)c1ccccc1 (stereo unspecified) : inactive
10) O=S(=O)(C(Cl)(Cl)Cl)C(Cl)(Cl)Cl : 0.327 µM (active)
11) Cc1cc(Cl)ccc1OC(C)C(=O)O (stereo unspecified) : inactive
12) C#CCOC(=O)/C=C(C)/C=C/CC(C)CCCC(C)C (stereo unspecified) : 31.5 µM (active)
13) CCOC(=O)CC(=O)CCl : inactive
14) Cc1cc(Cl)ccc1N : inactive
15) NC(=O)CCl : inactive
16) O=C(O)C1(c2ccc3c(c2)OC[C@H](Cc2ccc(-c4ccccc4)cc2)[C@H]3O)CCCC1 : inactive
17) Cc1cc(C)cc(C)c1 : inactive
18) Oc1c(Br)cc(Br)cc1Br : 27.3 µM (active)
19) CCCCCCCCCCCCN(C)C : inactive
20) O=[N+]([O-])c1ccc(Nc2ccccc2)cc1 : inactive
21) CC(C)(C)c1ccccc1O : inactive
22) Cc1ccccc1OP(=O)(Oc1ccccc1)Oc1ccccc1 : 20 µM (active)
23) O=c1oc2ccccc2c(O)c1C(CC(O)c1ccc(-c2ccc(Br)cc2)cc1)c1ccccc1 (stereo unspecified) : 5.2 µM (active)
24) Cc1ccc(OP(=O)(Oc2ccc(C)cc2C)Oc2ccc(C)cc2C)c(C)c1 : inactive
25) CC1(C)[C@H](C(=O)O[C@H](C#N)c2cccc(Oc3ccccc3)c2)[C@@H]1/C=C(\Cl)C(F)(F)F : inactive
26) Clc1cccc(Cl)c1 : inactive
